# Normalized Binding Signal/Display Signal (B/D) annotations
Molecular target: T1, human CGRP receptor extracellular domain (ECD) (human, UniProt Q16602 23-138; O60894 27-117)
T1 construct: also called CGRP receptor ECD; human CGRP receptor ECD
T1 sequence (Q16602 23-138 limits assumed, chain 1 of 2): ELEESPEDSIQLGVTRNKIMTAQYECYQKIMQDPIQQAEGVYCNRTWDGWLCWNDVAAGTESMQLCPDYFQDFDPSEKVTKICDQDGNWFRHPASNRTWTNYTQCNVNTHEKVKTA
T1 sequence (O60894 27-117 limits assumed, chain 2 of 2): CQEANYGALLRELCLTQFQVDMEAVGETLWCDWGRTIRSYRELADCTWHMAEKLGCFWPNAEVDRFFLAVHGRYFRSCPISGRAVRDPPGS
Test: yeast-displayed Fab, FACS, 1 nM human CGRP receptor ECD
Write the number in ratio without appending the unit.

Examples with their reported Normalized Binding Signal/Display Signal (B/D) follow.
| binder | numeric-readout |
| --- | --- |
| anti-CGRP receptor variant 06, yeast-displayed Fab (Fab, V domains shown, also called Variant Ab ID 06) VH: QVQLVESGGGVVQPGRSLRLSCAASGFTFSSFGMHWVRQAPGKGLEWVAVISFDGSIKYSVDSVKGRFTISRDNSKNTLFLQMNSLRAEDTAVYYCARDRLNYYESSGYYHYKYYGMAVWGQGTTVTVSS VL: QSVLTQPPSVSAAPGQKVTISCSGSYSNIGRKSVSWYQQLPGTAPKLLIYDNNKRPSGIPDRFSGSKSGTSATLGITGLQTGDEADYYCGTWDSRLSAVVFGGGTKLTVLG | 0.27 |
| anti-CGRP receptor variant 07, yeast-displayed Fab (Fab, V domains shown, also called Variant Ab ID 07) VH: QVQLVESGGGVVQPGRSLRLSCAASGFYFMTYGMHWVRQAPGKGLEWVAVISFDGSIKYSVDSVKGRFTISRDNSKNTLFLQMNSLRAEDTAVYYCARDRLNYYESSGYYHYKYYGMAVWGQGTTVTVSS VL: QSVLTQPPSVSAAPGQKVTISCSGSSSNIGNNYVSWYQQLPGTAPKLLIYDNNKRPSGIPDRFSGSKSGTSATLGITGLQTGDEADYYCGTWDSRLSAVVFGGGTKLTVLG | 0.22 |
| anti-CGRP receptor variant 08, yeast-displayed Fab (Fab, V domains shown, also called Variant Ab ID 08) VH: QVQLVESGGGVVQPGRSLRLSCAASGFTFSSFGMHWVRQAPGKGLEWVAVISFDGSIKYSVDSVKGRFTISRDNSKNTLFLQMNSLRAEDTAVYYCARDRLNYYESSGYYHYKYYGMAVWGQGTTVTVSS VL: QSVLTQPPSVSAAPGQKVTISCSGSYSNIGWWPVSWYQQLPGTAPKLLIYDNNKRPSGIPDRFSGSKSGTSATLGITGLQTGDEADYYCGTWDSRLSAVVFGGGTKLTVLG | 0.17 |
| anti-CGRP receptor variant 09, yeast-displayed Fab (Fab, V domains shown, also called Variant Ab ID 09) VH: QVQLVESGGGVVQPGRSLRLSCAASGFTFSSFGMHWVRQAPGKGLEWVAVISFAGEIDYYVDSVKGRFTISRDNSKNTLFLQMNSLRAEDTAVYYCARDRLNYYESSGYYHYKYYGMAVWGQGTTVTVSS VL: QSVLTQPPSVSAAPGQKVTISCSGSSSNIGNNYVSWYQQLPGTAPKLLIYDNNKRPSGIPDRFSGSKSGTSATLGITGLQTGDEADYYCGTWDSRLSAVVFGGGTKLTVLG | 0.38 |

// query Normalized Binding Signal/Display Signal (B/D) value for entry anti-CGRP receptor variant 05, yeast-displayed Fab (Fab, V domains shown, also called Variant Ab ID 05) VH: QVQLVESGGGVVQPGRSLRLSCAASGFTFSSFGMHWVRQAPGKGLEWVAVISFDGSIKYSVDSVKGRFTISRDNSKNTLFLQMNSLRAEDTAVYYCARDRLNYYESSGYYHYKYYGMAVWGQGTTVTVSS VL: QSVLTQPPSVSAAPGQKVTISCSGSFSNIGRSTVSWYQQLPGTAPKLLIYDNRWRAGGIPDRFSGSKSGTSATLGITGLQTGDEADYYCGTWDYQWKAVVFGGGTKLTVLG 0.82
